The measured values listed here are drawn from ChEMBL document CHEMBL5233255.

- procedureDetails: Cytotoxicity against human TZM-bl cells by luciferase assay
- Format: toxicity, cell-based
propertyName: CC50 (µM)
Give bare numbers, in µM.

Quick note, CC50 for Oc1cc(/C=C/c2cc(O)c(O)c(O)c2)cc(O)c1O landed at 20.1

###

- Tested on: Human immunodeficiency virus 1
- procedureDetails: Antiviral activity against HIV-1 infected in HEK293T cells
- Type: functional, organism-based
- conditionNotes: Human immunodeficiency virus 1, HEK-293T
pEC50: −log10 of the molar value.
Provide the reported pEC50 of each item.

See these solved cases before continuing.
{"moleculeSmiles": "Oc1ccc(-c2ccc(-c3cc(O)cc(O)c3)cc2)cc1", "propertyName": "pEC50", "reportedValue": 5.06}
{"moleculeSmiles": "Oc1cc(O)cc(/C=C/c2ccc(O)c(O)c2)c1", "propertyName": "pEC50", "reportedValue": 4.67}

State recorded pEC50 for all listed compounds.
1. Oc1cc(O)cc(-c2ccc3cc(O)ccc3c2)c1
2. Oc1ccc(/C=C/c2cc(O)cc(O)c2)cc1
3. O=C(/C=C/c1ccc(O)cc1)c1cc(O)cc(O)c1
4. Oc1cc(O)cc(-c2ccc3cnccc3c2)c1

Found:
1. < 4.12
2. < 4.12
3. < 4.12
4. < 4.12

###

- Test system: Human immunodeficiency virus 1
- procedureDetails: Antiviral activity against HIV-1 NL 4-3 (X4) infected in human TZM-bl cells assessed as inhibition of virus induced cytopathic effect by luciferase based assay
- Type: functional, organism-based
- conditionNotes: Human immunodeficiency virus 1, NL 4-3 (X4)
propertyName: EC50 (nM)
One number for each entry, in nM.

Noted EC50 for Oc1cc(/C=C/c2cc(O)c(O)c(O)c2)cc(O)c1O , tested on Human immunodeficiency virus 1: 290

###

- Test system: Enterovirus A71
- procedureDetails: Antiviral activity against human EV71 infected in African green monkey Vero cells assessed as reduction in cytopathic effect by SRB assay
- Format: functional, organism-based
- conditionNotes: Enterovirus A
propertyName: IC50 (µM)
Numbers only, in µM.

Noted IC50 for Oc1ccc(/C=C\c2cc(O)cc(O)c2)cc1 [CIS-RESVERATROL] , tested on Enterovirus A71: 37.6

###

- procedureDetails: Cytotoxicity against human A549 cells assessed as reduction in cell viability by Alamar blue assay
- Assay type: toxicity, cell-based
Provide the reported CC50 of each item.
Answers are plain numbers, in µM.

See these solved cases before continuing.
{"moleculeSmiles": "Oc1ccc(/C=C/c2cc(O)cc3c2[C@@H](c2cc(O)cc4c2[C@H](c2cc(O)cc5c2[C@@H](c2cc(O)cc(O)c2)[C@H](c2ccc(O)cc2)O5)[C@@H](c2ccc(O)cc2)O4)[C@H](c2ccc(O)cc2)O3)cc1", "units": "µM", "reportedValue": 8.4}
{"moleculeSmiles": "Oc1ccc(/C=C/c2cc(O)cc(O)c2)cc1", "units": "µM", "reportedValue": 52.6}
{"moleculeSmiles": "Oc1ccc([C@H]2c3c(O)cc(O)cc3[C@H]3c4c(cc(O)cc4[C@@H]2c2cc(/C=C/c4cc(O)cc5c4[C@H](c4cc(O)cc(O)c4)[C@@H](c4ccc(O)cc4)O5)ccc2O)O[C@@H]3c2ccc(O)cc2)cc1", "units": "µM", "reportedValue": 22.4}

Please turn your attention to the following entry.
Quick note, CC50 for Oc1ccc(/C=C/c2cc(O)cc3c2[C@@H](c2cc(O)cc(O)c2)[C@H](c2ccc(O)cc2)O3)cc1 landed at 54.7
